assay: Tmax in mouse at 25 mg/kg, po; assay type: ADME, organism-based; design: dose 25 mg/kg, route oral; conditions: in vivo
ASSAY READOUT: Tmax (h)
Give the number; h is assumed, so skip it.

I have this compound here, C[C@H]1Cc2c([nH]c3cc(F)c(F)cc23)[C@@]2(N1)C(=O)Nc1ccc(Cl)cc12 , and I need its recorded Tmax.
2

----------
assay: Solubility at pH 6.8; format: physicochemical; details: buffer
ASSAY READOUT: solubility

Study these solved cases before continuing.
CPD SMILES | solubility
C[C@H]1Cc2c([nH]c3ccc(F)cc23)[C@@]2(N1)C(=O)Nc1ccc(Cl)cc12 | 140 µg/mL
C[C@H]1Cc2c([nH]c3cc(F)c(F)cc23)[C@@]2(N1)C(=O)Nc1ccc(Cl)cc12 | 170 µg/mL
C[C@H]1Cc2c([nH]c3cc(Cl)ccc23)[C@@]2(N1)C(=O)Nc1ccc(Cl)cc12 | 8 µg/mL

Next:
I have this compound here, C[C@H]1CCc2c([nH]c3ccccc23)[C@@]2(N1)C(=O)Nc1ccc(Br)cc12 , and I need its recorded solubility.
79 µg/mL
